Reference for the values: patent US9089499B2

Target: Human tyrosinase (Homo sapiens)
Construct: endogenous in cells; host or cells: normal human melanocytes (abdominal surgery; several donors of fair, brown and black phototypes)
Assay: Inhibition of human tyrosinase after 24 h application to normal human melanocytes in monolayer
Assay type: cell-based
Conditions: 10^−4M; 24 hours; read-out: Inhibition of human tyrosinase after application to normal human melanocytes, percentage of inhibition, Mean 10^−4M
Label 1 for high-side inhibition at 100 µM (at or above 50%) and -1 for low-side inhibition at 100 µM (below it).

# COMPOUND, GROUP_LABEL
rows = [
    ("COc1cc(/C=C/C(=O)OCCc2ccc(O)cc2)ccc1O [Example 7, 2-(p-hydroxyphenylethyl)trans-ferulate]", -1),
    ("O=C(O)CCc1ccc(O)cc1 [p-Dihydrocoumaric acid, 3-(4-hydroxyphenyl)propionic acid, reference compound]", -1),
    ("COc1cc(/C=C/C(=O)NCCc2ccc(O)c(O)c2)ccc1O [Example 1, N-trans-feruloyldopamine]", 1),
    ("O=C(CCc1ccc(O)c(O)c1)NCCc1ccc(O)cc1 [Example 13, dihydrocaffeoyltyramine]", 1),
    ("COc1cc(C=CC(=O)O)ccc1O [Ferulic acid, 4-hydroxy-3-methoxycinnamic acid, reference compound]", -1),
    ("O=C(O)C=Cc1ccc(O)c(O)c1 [Caffeic acid, 3,4-dihydroxycinnamic acid, reference compound]", -1),
    ("O=C(CCc1ccc(O)cc1)NCCc1ccc(O)cc1 [Example 16, N-dihydrocoumaroyltyramine]", 1),
    ("O=C(/C=C/c1ccc(O)c(O)c1)NCCc1ccc(O)cc1 [Example 9, N-trans-caffeoyltyramine]", 1),
    ("COc1cc(CCC(=O)NCCc2ccc(O)cc2)ccc1O [Example 5, N-dihydroferuloyltyramine]", -1),
    ("O=C(/C=C/c1ccc(O)c(O)c1)NCCc1ccc(O)c(O)c1 [Example 10, N-trans-caffeoyldopamine]", 1),
    ("COc1cc(CCC(=O)NCCc2ccc(O)c(O)c2)ccc1O [Example 6, N-dihydroferuloyldopamine]", -1),
    ("COc1cc(/C=C/C(=O)NCCc2ccc(OC)c(OC)c2)ccc1O [Example 2, N-trans-feruloyl-3,4-dimethoxydopamine]", -1),
    ("COc1cc(/C=C/C(=O)NCc2ccc(O)c(OC)c2)ccc1O", -1),
]

----------
Biological target: Human tyrosinase (Homo sapiens, UniProt P14679)
Construct: endogenous in cells; host or cells: normal human melanocytes (abdominal surgery; several donors of fair, brown and black phototypes)
Experiment: Inhibition of human tyrosinase after 24 h application to normal human melanocytes in monolayer
Format: cell-based
Conditions: Donor 1, fair phototype; 10^−4 M; read-out: Inhibition of tyrosinase, Mean 10^−4 M, Donor 1
Entries annotated with measured inhibition at 100 µM
QUANTITY_KIND: inhibition at 100 µM (%)

# MOLECULE, EXPERIMENTAL_SYSTEM, QUANTITY_KIND, READOUT_UNITS, READING
rows = [
    ("COc1cc(/C=C/C(=O)NCCc2ccc(O)cc2)ccc1O [Example 3, N-trans-feruloyltyramine]", "Human tyrosinase (Homo sapiens, UniProt P14679)", "inhibition at 100 µM", "%", 44.8),
    ("COc1cc(/C=C/C(=O)NCCc2ccc(O)c(O)c2)ccc1O [Example 1, N-trans-feruloyldopamine]", "Human tyrosinase (Homo sapiens, UniProt P14679)", "inhibition at 100 µM", "%", 63.9),
    ("O=C(/C=C/c1ccc(O)c(O)c1)NCCc1ccc(O)c(O)c1 [Example 10, N-trans-caffeoyldopamine]", "Human tyrosinase (Homo sapiens, UniProt P14679)", "inhibition at 100 µM", "%", 44.6),
    ("O=C(/C=C/c1ccc(O)c(O)c1)NCCc1ccc(O)cc1 [Example 9, N-trans-caffeoyltyramine]", "Human tyrosinase (Homo sapiens, UniProt P14679)", "inhibition at 100 µM", "%", 65.3),
]

----------
Molecular target: Human tyrosinase (Homo sapiens)
Construct: endogenous in cells; host or cells: normal human melanocytes (abdominal surgery; several donors of fair, brown and black phototypes)
Sequence (P14679 19-529): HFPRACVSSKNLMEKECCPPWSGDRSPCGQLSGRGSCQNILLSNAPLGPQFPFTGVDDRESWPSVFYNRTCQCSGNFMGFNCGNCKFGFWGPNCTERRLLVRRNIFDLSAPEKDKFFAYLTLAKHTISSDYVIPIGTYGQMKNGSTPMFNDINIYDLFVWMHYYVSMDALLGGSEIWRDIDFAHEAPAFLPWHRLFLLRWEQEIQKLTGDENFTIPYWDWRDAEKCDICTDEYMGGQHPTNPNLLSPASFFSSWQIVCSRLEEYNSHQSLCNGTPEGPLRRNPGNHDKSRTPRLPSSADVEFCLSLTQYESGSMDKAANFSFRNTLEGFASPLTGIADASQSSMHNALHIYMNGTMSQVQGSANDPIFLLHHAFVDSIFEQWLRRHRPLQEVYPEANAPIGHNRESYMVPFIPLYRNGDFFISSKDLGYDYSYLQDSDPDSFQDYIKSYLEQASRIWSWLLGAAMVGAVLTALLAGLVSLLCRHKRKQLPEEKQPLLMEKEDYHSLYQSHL
Test: Inhibition of human tyrosinase after 24 h application to normal human melanocytes in monolayer
Format: cell-based
Details: Donor 2, fair phototype; 10^−5 M; read-out: Inhibition of tyrosinase, Mean 10^−5 M, Donor 2
QUANTITY_KIND: inhibition at 10 µM (%)

# COMPOUND, READOUT_UNITS, READING
records = [
    ("O=C(/C=C/c1ccc(O)c(O)c1)NCCc1ccc(O)cc1 [Example 9, N-trans-caffeoyltyramine]", "%", 0),
    ("O=C(/C=C/c1ccc(O)c(O)c1)NCCc1ccc(O)c(O)c1 [Example 10, N-trans-caffeoyldopamine]", "%", 0.15),
    ("COc1cc(/C=C/C(=O)NCCc2ccc(O)c(O)c2)ccc1O [Example 1, N-trans-feruloyldopamine]", "%", 12.9),
    ("COc1cc(/C=C/C(=O)NCCc2ccc(O)cc2)ccc1O [Example 3, N-trans-feruloyltyramine]", "%", 0),
]

----------
Test system: normal human melanocytes
Assay: Cytotoxicity on normal human melanocytes, PNPP assay
Assay type: cell-based
Settings: 10^−4 M; 24 hours; relative to untreated wells
Method: The cytotoxicity of the active agents is studied on normal human melanocytes in 24-well plates, via assay with PNPP (P-nitrophenyl phosphate), this substance being converted into p-nitrophenol via the intracellular acid phosphatases of viable cells. The absorbance of p-nitrophenol at 405 nm is directly proportional to the number of viable cells. The active agents are tested at 2 different concentrations (10^−4 M and 10^−5 M) and added to the culture medium and incubated at 37° C. for 24 hours. […]
Entries annotated with measured Percentages of viability, Mean 10^−4 M

# COMPOUND, EXPERIMENTAL_SYSTEM, Percentages of viability, Mean 10^−4 M, %
records = [
    ("COc1cc(/C=C/C(=O)NCc2ccc(O)c(OC)c2)ccc1O", "normal human melanocytes", 101.94),
    ("COc1cc(/C=C/C(=O)NCCc2ccc(O)cc2)ccc1O [Example 3, N-trans-feruloyltyramine]", "normal human melanocytes", 102.55),
    ("O=C(/C=C/c1ccc(O)c(O)c1)NCCc1ccc(O)c(O)c1 [Example 10, N-trans-caffeoyldopamine]", "normal human melanocytes", 84.62),
    ("COc1cc(/C=C/C(=O)NCCc2ccc(O)c(O)c2)ccc1O [Example 1, N-trans-feruloyldopamine]", "normal human melanocytes", 94.49),
    ("O=C(/C=C/c1ccc(O)c(O)c1)NCCc1ccc(O)cc1 [Example 9, N-trans-caffeoyltyramine]", "normal human melanocytes", 77.9),
    ("COc1cc(/C=C/C(=O)NCCc2ccc(OC)c(OC)c2)ccc1O [Example 2, N-trans-feruloyl-3,4-dimethoxydopamine]", "normal human melanocytes", 114.29),
]

----------
Biological target: Human tyrosinase (Homo sapiens)
Construct: endogenous in cells; host or cells: normal human melanocytes (abdominal surgery; several donors of fair, brown and black phototypes)
Sequence (P14679 19-529): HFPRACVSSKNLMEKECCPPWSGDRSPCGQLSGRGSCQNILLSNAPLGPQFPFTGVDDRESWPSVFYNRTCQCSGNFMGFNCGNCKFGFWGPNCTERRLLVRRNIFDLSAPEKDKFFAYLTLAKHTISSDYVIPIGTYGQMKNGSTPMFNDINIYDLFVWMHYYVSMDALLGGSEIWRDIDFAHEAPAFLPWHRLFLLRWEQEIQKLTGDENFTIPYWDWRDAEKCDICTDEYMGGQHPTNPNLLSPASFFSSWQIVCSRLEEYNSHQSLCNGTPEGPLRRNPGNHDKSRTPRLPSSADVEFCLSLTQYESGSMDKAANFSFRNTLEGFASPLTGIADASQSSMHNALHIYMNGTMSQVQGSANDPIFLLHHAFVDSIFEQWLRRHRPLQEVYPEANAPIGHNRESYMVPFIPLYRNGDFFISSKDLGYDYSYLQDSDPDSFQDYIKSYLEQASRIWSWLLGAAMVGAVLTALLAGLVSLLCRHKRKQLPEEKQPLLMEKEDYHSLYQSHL
Experiment: In vitro test of inhibition of human tyrosinase from melanocyte extracts (L-dopa/MBTH, OD 490 nm)
Type: biochemical
Settings: 10^−5M, melanocyte extract, read-out: Inhibition of human tyrosinase, percentage of inhibition, Mean 10^−5M
Entries annotated with measured inhibition at 10 µM

# COMPOUND, inhibition at 10 µM [%]
records = [
    ("COc1cc(/C=C/C(=O)NCCc2ccc(OC)c(OC)c2)ccc1O [Example 2, N-trans-feruloyl-3,4-dimethoxydopamine]", 0),
    ("O=C(/C=C/c1ccc(O)c(O)c1)NCCc1ccc(O)cc1 [Example 9, N-trans-caffeoyltyramine]", 11.9),
    ("O=C(/C=C/c1ccc(O)c(O)c1)NCCc1ccc(O)c(O)c1 [Example 10, N-trans-caffeoyldopamine]", 11.4),
    ("COc1cc(CNC(=O)/C=C/c2ccc(O)c(O)c2)ccc1O", 8.68),
    ("COc1ccc(CCNC(=O)/C=C/c2ccc(O)c(O)c2)cc1OC [Example 12, N-trans-caffeoyl-3,4-dimethoxydopamine]", 0),
    ("COc1cc(/C=C/C(=O)NCCc2ccc(O)cc2)ccc1O [Example 3, N-trans-feruloyltyramine]", 7.56),
    ("COc1cc(/C=C/C(=O)NCCc2ccc(O)c(O)c2)ccc1O [Example 1, N-trans-feruloyldopamine]", 0),
    ("COc1cc(/C=C/C(=O)NCc2ccc(O)c(OC)c2)ccc1O", 4.92),
]
